So I've got a bunch of compounds here, and I need their viability, T/C values.
test system: 857933-349-R-J2-PDC complex spheroids, viability; assay: Anticancer human tumor 857933-349-R-J2-PDC patient-derived colon adenocarcinoma cell line growth inhibition [GQUAD]; conditions: second compound 10 µM; first compound 0.00999 µM; stronger effect = lower value
Numeric only. Scale: %

Lookup: Specify the recorded viability, T/C for Cn1ncnc1[C@H]1c2n[nH]c(=O)c3cc(F)cc(c23)N[C@@H]1c1ccc(F)cc1 + Cc1cnc(CNC(=O)c2c(=O)c3ccc(N4CCCN(C)CC4)nc3n3c2sc2ccccc23)cn1 , system: 857933-349-R-J2-PDC complex spheroids, viability.
Found: 2.39

Lookup: Specify the recorded viability, T/C for Cn1ncnc1[C@H]1c2n[nH]c(=O)c3cc(F)cc(c23)N[C@@H]1c1ccc(F)cc1 + Cc1[nH]c2ccc(F)cc2c1-c1nc2c3cccnc3c3ncccc3c2[nH]1 , system: 857933-349-R-J2-PDC complex spheroids, viability.
Found: 97.1

Lookup: Specify the recorded viability, T/C for Cc1[nH]c2ccccc2c1CCNCc1ccc(/C=C/C(=O)NO)cc1 + Cc1[nH]c2ccc(F)cc2c1-c1nc2c3cccnc3c3ncccc3c2[nH]1 , system: 857933-349-R-J2-PDC complex spheroids, viability.
Found: 88.1

----------
system: 857933-349-R-J2-PDC complex spheroids, viability; test: Anticancer human tumor 857933-349-R-J2-PDC cell line growth inhibition [GQUAD]; conditions: curve of first compound; second compound 0.316 µM;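 note: spheroids exposed to compounds for one week before readout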
pIC50: −log10 of the molar value.
RECORDED_ENDPOINT: pIC50

Lookup: Recall and state the measured pIC50 for O=C(c1cc(Cc2n[nH]c(=O)c3ccccc23)ccc1F)N1CCN(C(=O)C2CC2)CC1 + Cc1cnc(CNC(=O)c2c(=O)c3ccc(N4CCCN(C)CC4)nc3n3c2sc2ccccc23)cn1 .
Found: > 7.50

Lookup: Recall and state the measured pIC50 for CC(C)n1c(=O)n(C)c2cnc3cc(F)c(-c4ccc(OCCCN5CCCCC5)nc4)cc3c21 + Cc1cnc(CNC(=O)c2c(=O)c3ccc(N4CCCN(C)CC4)nc3n3c2sc2ccccc23)cn1 .
Found: > 7.50

Lookup: Recall and state the measured pIC50 for CC1COCCN1c1cc(C2(S(C)(=N)=O)CC2)nc(-c2ccnc3[nH]ccc23)n1 (stereo not given) + Cc1cnc(CNC(=O)c2c(=O)c3ccc(N4CCCN(C)CC4)nc3n3c2sc2ccccc23)cn1 .
Found: > 7.50

Lookup: Recall and state the measured pIC50 for O=c1[nH]cc(F)c(=O)[nH]1 + Cc1cnc(CNC(=O)c2c(=O)c3ccc(N4CCCN(C)CC4)nc3n3c2sc2ccccc23)cn1 .
Found: > 7.50

Lookup: Recall and state the measured pIC50 for O=C(NO)c1cnc(N2CCN(S(=O)(=O)c3ccc4ccccc4c3)CC2)nc1 + CN(C)c1ccc(Nc2c3ccc(NC(=O)CCN4CCCC4)cc3nc3cc(NC(=O)CCN4CCCC4)ccc23)cc1 .
Found: 5.88

Lookup: Recall and state the measured pIC50 for CC1COCCN1c1cc(C2(O)CC3CCC(C2)O3)c2cnn(-c3ccn[nH]3)c2n1 (stereo not given) + Cc1cnc(CNC(=O)c2c(=O)c3ccc(N4CCCN(C)CC4)nc3n3c2sc2ccccc23)cn1 .
Found: > 7.50

Lookup: Recall and state the measured pIC50 for C=CC(=O)N1CCN(c2nc(=O)n(-c3c(C)ccnc3C(C)C)c3nc(-c4c(O)cccc4F)c(F)cc23)C(C)C1 (stereo not given) + Cc1[nH]c2ccc(F)cc2c1-c1nc2c3cccnc3c3ncccc3c2[nH]1 .
Found: < 5.00

Lookup: Recall and state the measured pIC50 for CC(C)(O)C1CCC(Nc2ccc3ncc(-c4cccc(C(F)(F)F)c4)n3n2)CC1 (stereo not given) + Cc1cnc(CNC(=O)c2c(=O)c3ccc(N4CCCN(C)CC4)nc3n3c2sc2ccccc23)cn1 .
Found: > 7.50

Lookup: Recall and state the measured pIC50 for COc1cccc2c1C(=O)c1c(O)c3c(c(O)c1C2=O)CC(O)(C(=O)CO)CC3OC1CC(N)C(O)C(C)O1 (stereo not given) + Cc1cnc(CNC(=O)c2c(=O)c3ccc(N4CCCN(C)CC4)nc3n3c2sc2ccccc23)cn1 .
Found: > 7.50

Lookup: Recall and state the measured pIC50 for COc1ncnc(C2CC2)c1-c1ncc2cnn(Cc3ccc(-c4nc(C(F)(F)F)cn4C(C)C)cc3)c2n1 + Cc1cnc(CNC(=O)c2c(=O)c3ccc(N4CCCN(C)CC4)nc3n3c2sc2ccccc23)cn1 .
Found: > 7.50

Lookup: Recall and state the measured pIC50 for COc1ccc([C@@H](O)c2cc(-c3ncnc4cc(N5CCOCC5)ccc34)c(F)cc2Cl)nn1 + Cc1[nH]c2ccc(F)cc2c1-c1nc2c3cccnc3c3ncccc3c2[nH]1 .
Found: < 5.00

Lookup: Recall and state the measured pIC50 for Nc1ccn(C2OC(CO)C(O)C2(F)F)c(=O)n1 (stereo not given) + Cc1[nH]c2ccc(F)cc2c1-c1nc2c3cccnc3c3ncccc3c2[nH]1 .
Found: 6.47

Lookup: Recall and state the measured pIC50 for O=C(c1cc(Cc2n[nH]c(=O)c3ccccc23)ccc1F)N1CCN(C(=O)C2CC2)CC1 + CN(C)c1ccc(Nc2c3ccc(NC(=O)CCN4CCCC4)cc3nc3cc(NC(=O)CCN4CCCC4)ccc23)cc1 .
Found: < 5.00

Lookup: Recall and state the measured pIC50 for COc1ccc([C@@H](O)c2cc(-c3ncnc4cc(N5CCOCC5)ccc34)c(F)cc2Cl)nn1 + CN(C)c1ccc(Nc2c3ccc(NC(=O)CCN4CCCC4)cc3nc3cc(NC(=O)CCN4CCCC4)ccc23)cc1 .
Found: < 5.00

Lookup: Recall and state the measured pIC50 for COc1cc(C2c3cc4c(cc3C(OC3OC5COC(C)OC5C(O)C3O)C3COC(=O)C23)OCO4)cc(OC)c1O (stereo not given) + CN(C)c1ccc(Nc2c3ccc(NC(=O)CCN4CCCC4)cc3nc3cc(NC(=O)CCN4CCCC4)ccc23)cc1 .
Found: 5.24

Lookup: Recall and state the measured pIC50 for C=CCn1c(=O)c2cnc(Nc3ccc(N4CCN(C)CC4)cc3)nc2n1-c1cccc(C(C)(C)O)n1 + Cc1[nH]c2ccc(F)cc2c1-c1nc2c3cccnc3c3ncccc3c2[nH]1 .
Found: 5.83

Lookup: Recall and state the measured pIC50 for CC(=O)O[C@H]1C(=O)[C@@]2(C)[C@H]([C@H](OC(=O)c3ccccc3)[C@]3(O)C[C@H](OC(=O)[C@H](O)[C@@H](NC(=O)c4ccccc4)c4ccccc4)C(C)=C1C3(C)C)[C@]1(OC(C)=O)CO[C@@H]1C[C@@H]2O + CN(C)c1ccc(Nc2c3ccc(NC(=O)CCN4CCCC4)cc3nc3cc(NC(=O)CCN4CCCC4)ccc23)cc1 .
Found: 7.21

Lookup: Recall and state the measured pIC50 for COc1cccc2c1C(=O)c1c(O)c3c(c(O)c1C2=O)CC(O)(C(=O)CO)CC3OC1CC(N)C(O)C(C)O1 (stereo not given) + CN(C)c1ccc(Nc2c3ccc(NC(=O)CCN4CCCC4)cc3nc3cc(NC(=O)CCN4CCCC4)ccc23)cc1 .
Found: 6.18

Lookup: Recall and state the measured pIC50 for COc1ccc([C@@H](O)c2cc(-c3ncnc4cc(N5CCOCC5)ccc34)c(F)cc2Cl)nn1 + Cc1cnc(CNC(=O)c2c(=O)c3ccc(N4CCCN(C)CC4)nc3n3c2sc2ccccc23)cn1 .
Found: > 7.50

Lookup: Recall and state the measured pIC50 for Cn1ncnc1[C@H]1c2n[nH]c(=O)c3cc(F)cc(c23)N[C@@H]1c1ccc(F)cc1 + Cc1[nH]c2ccc(F)cc2c1-c1nc2c3cccnc3c3ncccc3c2[nH]1 .
Found: < 6.50
